SYSTEM TESTED: IRAK4 (Homo sapiens, UniProt Q9NWZ3)
Sequence (Q9NWZ3 whole entry): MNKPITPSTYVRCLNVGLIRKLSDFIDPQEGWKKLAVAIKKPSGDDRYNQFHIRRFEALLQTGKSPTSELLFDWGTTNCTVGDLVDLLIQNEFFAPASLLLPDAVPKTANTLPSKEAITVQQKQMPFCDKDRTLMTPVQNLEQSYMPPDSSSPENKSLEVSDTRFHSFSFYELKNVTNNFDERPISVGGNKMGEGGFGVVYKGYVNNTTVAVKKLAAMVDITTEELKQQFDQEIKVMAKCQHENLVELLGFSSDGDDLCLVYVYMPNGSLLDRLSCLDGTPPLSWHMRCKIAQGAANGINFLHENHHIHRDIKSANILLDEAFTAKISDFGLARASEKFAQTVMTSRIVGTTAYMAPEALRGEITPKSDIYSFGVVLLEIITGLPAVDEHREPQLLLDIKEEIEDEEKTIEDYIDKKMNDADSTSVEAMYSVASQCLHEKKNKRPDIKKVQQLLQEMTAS
TEST: THP-1 degradation assay (western blot, % IRAK4 degraded after 24 hours)
Assay type: cell-based
Design: endogenous in cells
MEASUREMENT SETUP: THP-1 cells

| COMPOUND | SYSTEM TESTED | THP-1 24 h % IRAK4 Degradation |
| --- | --- | --- |
| Cc1ncsc1-c1ccc(CNC(=O)[C@@H]2C[C@@H](O)CN2C(=O)[C@H](NC(=O)CCCCCCCCCCCNC(=O)[C@H]2CC[C@H](NC(=O)c3cnc(Nc4ccc5cnccc5n4)cc3NC3CC3)CC2)C(C)(C)C)cc1 | IRAK4 (Homo sapiens, UniProt Q9NWZ3) | C (<20% degradation) |
| O=C1CCC(N2C(=O)c3cccc(NCCCOCCCNC(=O)[C@H]4CC[C@H](NC(=O)c5cnc(Nc6ccc7cnccc7n6)cc5NC5CC5)CC4)c3C2=O)C(=O)N1 (stereo partly drawn) | IRAK4 (Homo sapiens, UniProt Q9NWZ3) | C (<20% degradation) |

====

TEST: Pharmacokinetics in CD-1 mice (plasma concentrations, PK parameters)
Format: in vivo
MEASUREMENT SETUP: mouse (CD1) iv 2 mg/kg; Mean
MEASURED ENDPOINT: AUClast/D (h·ng/mL per mg/kg)

P. O=C1CCC(N2C(=O)c3cccc(NCCOCCOCCNCc4ccc(-n5cc(NC(=O)c6coc(-c7ccnc(NCC8CC8)c7)n6)c(C(F)F)n5)cc4)c3C2=O)C(=O)N1 (centres unmarked)
Q. NC(=O)c1nn(-c2ccc(C(=O)NCCCCCNCCNc3cccc4c3C(=O)N(C3CCC(=O)NC3=O)C4=O)cc2)cc1NC(=O)c1coc(-c2ccnc(NCC(F)(F)F)c2)n1 (centres unmarked)
Ask: // compare measured AUClast/D, left P , right Q , return larger When you have decided, please share the label of that item.
Reply: Q
(Q: 532 h·ng/mL per mg/kg, P: 331 h·ng/mL per mg/kg)

====

TEST: Pharmacokinetics in Sprague Dawley rats (plasma and brain concentrations, PK parameters)
Assay type: in vivo
MEASUREMENT SETUP: Sprague Dawley, rat, plasma, iv, 3 mg/kg, Sprague Dawley rat, iv 3 mg/kg, Rat 3; read-out: T1/2 Rat 3 (converted)
MEASURED ENDPOINT: half-life (min)
Use min as the unit, but write only the number.

Ask: Check the records and state half-life for O=C1CCC(N2C(=O)c3cccc(NCCOCCOCCNCc4ccc(-n5cc(NC(=O)c6coc(-c7ccnc(NCC8CC8)c7)n6)c(C(F)F)n5)cc4)c3C2=O)C(=O)N1 (stereo not shown)
Reply: 173

====

TEST: Pharmacokinetics in Sprague Dawley rats (plasma and brain concentrations, PK parameters)
Assay type: in vivo
MEASUREMENT SETUP: Sprague-Dawley, rat, plasma, iv, 3 mg/kg, Sprague Dawley rat, iv 3 mg/kg, plasma, 4 h, mean of 3 rats; read-out: Concentration Mean
MEASURED ENDPOINT: concentration at 4 h (ng/mL)
Write down the numeric answer in ng/mL and omit the unit.

Ask: Tell me measured concentration at 4 h for O=C1CCC(N2C(=O)c3cccc(NCCOCCOCCNCc4ccc(-n5cc(NC(=O)c6coc(-c7ccnc(NCC8CC8)c7)n6)c(C(F)F)n5)cc4)c3C2=O)C(=O)N1 (stereo not shown) please.
Reply: 76.1

====

SYSTEM TESTED: IRAK4 (Homo sapiens, UniProt Q9NWZ3)
TEST: OCI-LY-10 degradation assay (western blot, % IRAK4 degraded after 4 hours)
Type: cell-based
Set-up: endogenous in cells; host or cells: OCI-LY10
MEASUREMENT SETUP: OCI-LY10 cells, 4 hours, 0.1 uM compound
MEASURED ENDPOINT: OCI-LY10 % IRAK4 Degradation (0.1 uM)

Guide cases for OCI-LY10 % IRAK4 Degradation (0.1 uM), answers given:
| MOLECULE | OCI-LY10 % IRAK4 Degradation (0.1 uM) |
| --- | --- |
| CN(CCCc1cccc2c1C(=O)N(C1CCC(=O)NC1=O)C2=O)Cc1ccc(-n2cc(NC(=O)c3coc(-c4ccnc(NCC(F)(F)F)c4)n3)c(C(F)F)n2)cc1 (centres unmarked) | C (<20% degradation) |
| Cn1c(=O)n(C2CCC(=O)NC2=O)c2ccc(CCCOCCOCCNC(=O)c3ccc(-n4cc(NC(=O)c5coc(-c6ccnc(NCC(F)(F)F)c6)n5)c(C(N)=O)n4)cc3)cc21 (centres unmarked) | A (>50% degradation) |
| O=C1CCC(N2C(=O)c3ccc(NCc4cn(CCOCCOCCNCc5ccc(-n6cc(NC(=O)c7coc(-c8ccnc(NCC9CC9)c8)n7)c(C(F)F)n6)cc5)nn4)cc3C2=O)C(=O)N1 (centres unmarked) | A (>50% degradation) |
| O=C1CCC(N2C(=O)c3ccc(N4CCN(CCOCCNC(=O)c5ccc(-n6cc(NC(=O)c7coc(-c8ccnc(NCC9CC9)c8)n7)c(C(F)F)n6)cc5)CC4)cc3C2=O)C(=O)N1 (centres unmarked) | A (>50% degradation) |
| O=C1CCC(N2C(=O)c3cccc(NCCOCCN4CCO[C@@H](CNC(=O)c5ccc(-n6cc(NC(=O)c7coc(-c8ccnc(NCC9CC9)c8)n7)c(C(F)F)n6)cc5)C4)c3C2=O)C(=O)N1 (some centres unmarked) | A (>50% degradation) |
| O=C1CCC(N2C(=O)c3cccc(CCCOCCOCCNC(=O)c4ccc(-n5cc(NC(=O)c6coc(-c7ccnc(NCC8CC8)c7)n6)c(C(F)F)n5)cc4)c3C2=O)C(=O)N1 (centres unmarked) | B (>20-50% degradation) |
| O=C1CCC(n2c(=O)oc3c(CCCOCCOCCNC(=O)c4ccc(-n5cc(NC(=O)c6coc(-c7ccnc(NCC8CC8)c7)n6)c(C(F)F)n5)cc4)cccc32)C(=O)N1 (centres unmarked) | A (>50% degradation) |
| O=C1CCC(N2C(=O)c3cccc(NCCOCCN4CC5(CN(CCOCCNCc6ccc(-n7cc(NC(=O)c8coc(-c9ccnc(NCC%10CC%10)c9)n8)c(C(F)F)n7)cc6)C5)C4)c3C2=O)C(=O)N1 (centres unmarked) | C (<20% degradation) |

Ask: Give the reported OCI-LY10 % IRAK4 Degradation (0.1 uM) for this molecule. NC(=O)c1nn(CCOCCOCCOCCOCCNc2cccc3c2C(=O)N(C2CCC(=O)NC2=O)C3=O)cc1NC(=O)c1coc(-c2ccnc(NCC3CC3)c2)n1 (centres unmarked)
Reply: B (>20-50% degradation)

Ask: Provide measured OCI-LY10 % IRAK4 Degradation (0.1 uM) value, entry: NC(=O)c1nn(-c2ccc(C(=O)NCCOCCCc3cccc4c3C(=O)N(C3CCC(=O)NC3=O)C4=O)cc2)cc1NC(=O)c1coc(-c2ccnc(NCC(F)(F)F)c2)n1 (centres unmarked)
Reply: B (>20-50% degradation)

Ask: Please give the documented OCI-LY10 % IRAK4 Degradation (0.1 uM) of CN(CCNCCCc1cccc2c1C(=O)N(C1CCC(=O)NC1=O)C2=O)C(=O)c1ccc(-n2cc(NC(=O)c3coc(-c4ccncc4)n3)c(C(F)F)n2)cc1 (centres unmarked)
Reply: C (<20% degradation)

====

TEST: Pharmacokinetics in Sprague Dawley rats (plasma and brain concentrations, PK parameters)
Assay type: in vivo
MEASUREMENT SETUP: Sprague Dawley, rat, plasma, po, 10 mg/kg, Sprague Dawley rat, po 10 mg/kg, plasma, 4 h, mean of 3 rats; read-out: Concentration Mean
MEASURED ENDPOINT: concentration at 4 h (ng/mL)
// note: answer is a bare numeric in ng/mL

Ask: Give me measured concentration at 4 h, please, for this molecule: O=C1CCC(N2C(=O)c3cccc(NCCOCCOCCNCc4ccc(-n5cc(NC(=O)c6coc(-c7ccnc(NCC8CC8)c7)n6)c(C(F)F)n5)cc4)c3C2=O)C(=O)N1 (stereo not shown)
Reply: 2.91

====

TEST: Pharmacokinetics in Sprague Dawley rats (plasma and brain concentrations, PK parameters)
Assay type: in vivo
MEASUREMENT SETUP: Sprague-Dawley, rat, plasma, iv, 3 mg/kg, Sprague Dawley rat, iv 3 mg/kg, plasma, 0.5 h, Rat 1; read-out: Concentration Rat 1
Method: Pharmacokinetics for I-127, I-172 and I-210 were determined in Sprague Dawley rats or CD-1 mice by dosing intravenous (IV), subcutaneous (SC) or per oral (PO) using facility SOPs and sampling plasma at required time points. […] Compounds were extracted from plasma, injected on reverse phase HPLC, eluted with a gradient from 5% to 95% acetonitrile in water and quantified by mass spectrometry with internal standard. […]
MEASURED ENDPOINT: concentration at 0.5 h (ng/mL)
Your answer is read as ng/mL, so omit the unit and give the number.

Ask: Indicate its recorded concentration at 0.5 h; the compound in question is O=C1CCC(N2C(=O)c3cccc(NCCOCCOCCNCc4ccc(-n5cc(NC(=O)c6coc(-c7ccnc(NCC8CC8)c7)n6)c(C(F)F)n5)cc4)c3C2=O)C(=O)N1 (stereo not shown)
Reply: 307

Entry source: patent US10874743B2
